# target_under_test: TAX1BP1(1-121) (human, UniProt Q86VP1 1-121)
# Sequence (Q86VP1 1-121): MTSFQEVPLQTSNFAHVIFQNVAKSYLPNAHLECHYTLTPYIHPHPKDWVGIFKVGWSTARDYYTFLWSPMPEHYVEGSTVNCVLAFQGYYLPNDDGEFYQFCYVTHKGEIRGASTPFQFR
# test_details: ITC
pKd: −log10 of the molar value.
readout_type: pKd

What does the data say about its pKd? Entry: ESVASHFALVTAYEDIKKRLKDSEKENSLLKKRIRFLEEKLIA (domain or fragment, human, UniProt Q9H6S1 33-75, looked up) [NAP1(33-75)]
~5.69
